- STUDY_SYSTEM: hTREX1 (Homo sapiens, UniProt Q9NSU2)
- ASSAY: hTREX1 HCT116 Cell Assay (HCT116 dual cells, Lucia luciferase reporter of Type I interferon induction)
- RUN_PARAMETERS: TREX1i 4 h before pBR322/BstNI transfection, read after 48 h
pIC50: −log10 of the molar value.
Measured pIC50, listed per entry.
EXPERIMENTAL_READOUT: pIC50

1. CC(c1nc(C(=O)Nc2cnoc2)c(O)c(=O)n1C)C(c1ccccc1Cl)n1cccn1 (single isomer, unassigned) ... < 7.00
2. COCCCn1cc(C(c2ccccc2C#N)C(C)c2nc(C(=O)Nc3cnoc3)c(O)c(=O)n2C)cn1 (single isomer, unassigned) ... > 8.00
3. CC(c1nc(C(=O)Nc2cnoc2)c(O)c(=O)n1C)C(c1ccccc1C#N)c1cn(C)nc1C#N (single isomer, unassigned) [Example 10 D2E1] ... > 8.00
4. CC(c1nc(C(=O)Nc2cnoc2)c(O)c(=O)n1C)C(c1ccccc1Cl)n1nccc1C#N (single isomer, unassigned) ... 7.00 to 8.00
5. CC(c1nc(C(=O)Nc2cnoc2)c(O)c(=O)n1C)C(c1ccccc1Cl)c1cnn(C)c1C#N (single isomer, unassigned) [Example 96 D2E2] ... > 8.00
6. COCCn1ncc(C(c2cc(F)ccc2Cl)C(C)c2nc(C(=O)Nc3cnoc3)c(O)c(=O)n2C)c1C (single isomer, unassigned) [Example 108 D2E1] ... 7.00 to 8.00
7. Cc1c(C(c2ccccc2C#N)C(C)c2nc(C(=O)Nc3cnoc3)c(O)c(=O)n2C)cnn1C (single isomer, unassigned) [Example 4 D1E1] ... 7.00 to 8.00
8. CC(c1nc(C(=O)Nc2cnoc2)c(O)c(=O)n1C)C(c1cnn(CC2CC2)c1)c1ccccc1C#N (single isomer, unassigned) ... 7.00 to 8.00
9. Cc1nn(C)cc1C(c1ccccc1C#N)C(c1nc(C(=O)Nc2cnoc2)c(O)c(=O)n1C)C(F)(F)F (single isomer, unassigned) ... > 8.00
10. Cc1cc(C(c2cc(F)ccc2C#N)C(C)c2nc(C(=O)Nc3cnoc3)c(O)c(=O)n2C)n(C)n1 (single isomer, unassigned) [Example 111 D1E2] ... 7.00 to 8.00
11. Cc1c(C(c2ccccc2C#N)C(C)c2nc(C(=O)Nc3cnoc3)c(O)c(=O)n2C)cnn1C (single isomer, unassigned) [Example 4 D2E2] ... < 7.00
12. Cc1cc(C(c2ccccc2C#N)C(C)c2nc(C(=O)Nc3cnoc3)c(O)c(=O)n2C)ccn1 (single isomer, unassigned) [Example 6 D2E2] ... < 7.00

----------
Measured residence time, listed per entry.
- STUDY_SYSTEM: full length human TREX1 (Homo sapiens)
- Construct: N-terminally His-Tev tagged full length human TREX1; made in house; host or cells: E. coli
- ASSAY: TREX1 Kinetics Assays (TR-FRET association and dissociation, global fit with Kintek Explorer)
- Assay type: binding
- RUN_PARAMETERS: hTREX1, TR-FRET kinetics
- Method: Compound binding kinetics were assessed using a pair of TR-FRET assays which measure the proportion of protein bound to a biotinylated TREX1 inhibitor (“probe”). […]
EXPERIMENTAL_READOUT: residence time (min)

1. Cc1ncc(C(c2cc(F)ccc2C#N)C(C)c2nc(C(=O)Nc3cnoc3)c(O)c(=O)n2C)nc1C (single isomer, unassigned) ... 741
2. CC(c1nc(C(=O)Nc2cnoc2)c(O)c(=O)n1C)C(c1cnn(CC2CC2)c1)c1ccccc1C#N (single isomer, unassigned) ... 290
3. Cc1nn(C)cc1C(c1cc(F)ccc1C#N)C(C)c1nc(C(=O)Nc2cnoc2)c(O)c(=O)n1C (single isomer, unassigned) ... 431
4. Cc1ncc(C(c2ccccc2C#N)C(C)c2nc(C(=O)Nc3cnoc3)c(O)c(=O)n2C)nc1C (single isomer, unassigned) ... 714
5. CCn1cc(C(c2ccc(F)cc2C#N)C(C)c2nc(C(=O)Nc3cnoc3)c(O)c(=O)n2C)cn1 (single isomer, unassigned) ... 461
6. Cc1nn(C)c(C)c1C(c1ccccc1C#N)C(C)c1nc(C(=O)Nc2cnoc2)c(O)c(=O)n1C (single isomer, unassigned) ... 413

----------
- STUDY_SYSTEM: full length human TREX1 (Homo sapiens, UniProt Q9NSU2)
- Construct: N-terminally His-Tev tagged full length human TREX1; made in house; host or cells: E. coli
- ASSAY: TREX1 Kinetics Assays (TR-FRET association and dissociation, global fit with Kintek Explorer)
- Type: binding
- RUN_PARAMETERS: hTREX1, TR-FRET, 25° C., global fit
EXPERIMENTAL_READOUT: koff (s⁻¹)

1) CC(c1nc(C(=O)Nc2cnoc2)c(O)c(=O)n1C)C(c1cnn(C)c1)c1cc(F)ccc1C#N (single isomer, unassigned) ... 5.38e-05
2) Cc1cnc(C(c2cc(F)ccc2C#N)C(C)c2nc(C(=O)Nc3cnoc3)c(O)c(=O)n2C)cn1 (single isomer, unassigned) ... 3.23e-05
3) CC(c1nc(C(=O)Nc2cnoc2)c(O)c(=O)n1C)C(c1cnn(C)c1)c1ccccc1C#N (single isomer, unassigned) ... 4.53e-05
4) CC(c1nc(C(=O)Nc2cnoc2)c(O)c(=O)n1C)C(c1cnn(C)c1)c1cc(Cl)ccc1C#N (single isomer, unassigned) ... 6.2e-05
5) CC(c1nc(C(=O)Nc2cnoc2)c(O)c(=O)n1C)C(c1ccccc1C#N)c1cn(C)nc1C#N (single isomer, unassigned) ... 2.72e-05
6) CCn1c(C(C)C(c2cnn(C)c2)c2ccccc2C#N)nc(C(=O)Nc2cnoc2)c(O)c1=O (single isomer, unassigned) ... 3.3e-05
7) Cc1nc(C)c(C(c2ccccc2C#N)C(C)c2nc(C(=O)Nc3cnoc3)c(O)c(=O)n2C)nc1C (single isomer, unassigned) ... 1.15e-05
8) Cc1cc(C(c2cc(F)ccc2C#N)C(C)c2nc(C(=O)Nc3cnoc3)c(O)c(=O)n2C)n(C)n1 (single isomer, unassigned) ... 3.62e-05
9) Cc1ncc(C(c2ccccc2C#N)C(C)c2nc(C(=O)Nc3cnoc3)c(O)c(=O)n2C)cn1 (single isomer, unassigned) ... 4.08e-05
10) CCn1cc(C(c2ccc(F)cc2C#N)C(C)c2nc(C(=O)Nc3cnoc3)c(O)c(=O)n2C)cn1 (single isomer, unassigned) ... 3.62e-05
11) CC(c1nc(C(=O)Nc2cnoc2)c(O)c(=O)n1C)C(c1ccccc1C#N)c1cn(C)nc1F (single isomer, unassigned) ... 9.17e-06
12) Cc1nn(C)c(C)c1C(c1ccccc1C#N)C(C)c1nc(C(=O)Nc2cnoc2)c(O)c(=O)n1C (single isomer, unassigned) ... 4.03e-05

----------
- STUDY_SYSTEM: hTREX1 (Homo sapiens, UniProt Q9NSU2)
- Construct: host or cells: HCT116 dual cells
- Sequence (Q9NSU2 1-314): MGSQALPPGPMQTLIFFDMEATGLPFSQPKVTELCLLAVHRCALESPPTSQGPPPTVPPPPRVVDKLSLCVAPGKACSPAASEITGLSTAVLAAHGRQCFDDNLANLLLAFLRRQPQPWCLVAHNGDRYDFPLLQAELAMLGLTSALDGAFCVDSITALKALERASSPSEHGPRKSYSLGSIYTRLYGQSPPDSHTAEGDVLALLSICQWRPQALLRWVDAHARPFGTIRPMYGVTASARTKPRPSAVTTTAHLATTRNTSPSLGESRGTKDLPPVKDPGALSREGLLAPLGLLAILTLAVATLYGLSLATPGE
- ASSAY: hTREX1 HCT116 Cell Assay (HCT116 dual cells, Lucia luciferase reporter of Type I interferon induction)
- Format: cell-based
- RUN_PARAMETERS: TREX1i 4 h before pBR322/BstNI transfection, read after 48 h
EXPERIMENTAL_READOUT: IC50

1) CC(c1nc(C(=O)Nc2cnoc2)c(O)c(=O)n1C)C(c1cnn(C)c1)c1ccccc1C#N (single isomer, unassigned) [Example 2 D1E1] ... < 10 nM
2) Cc1cnc(C)c(C(c2cc(F)ccc2C#N)C(C)c2nc(C(=O)Nc3cnoc3)c(O)c(=O)n2C)n1 (single isomer, unassigned) [Example 119 D2E1] ... > 100 nM
3) COCCn1nc(C)c(C(c2cc(F)ccc2C#N)C(C)c2nc(C(=O)Nc3cnoc3)c(O)c(=O)n2C)c1C (single isomer, unassigned) ... > 100 nM
4) Cc1cnc(C(c2ccccc2C#N)C(C)c2nc(C(=O)Nc3cnoc3)c(O)c(=O)n2C)c(C)n1 (single isomer, unassigned) ... > 100 nM
5) C[C@H](c1nc(C(=O)Nc2cnoc2)c(O)c(=O)n1C)[C@@H](c1cc(F)ccc1C#N)c1cn(C)nc1C#N ... < 10 nM
6) CC(c1nc(C(=O)Nc2cnoc2)c(O)c(=O)n1C)C(c1cnn(C)c1)c1ccc(C(F)(F)F)cc1C#N (single isomer, unassigned) ... < 10 nM
7) COC(C)(C)Cn1cc(C(c2ccccc2C#N)C(C)c2nc(C(=O)Nc3cnoc3)c(O)c(=O)n2C)cn1 (single isomer, unassigned) ... 10 to 100 nM
8) CCn1cc(C(c2ccccc2C#N)C(C)c2nc(C(=O)Nc3cnoc3)c(O)c(=O)n2C)cn1 (single isomer, unassigned) [Example 13 D2E1] ... > 100 nM
9) Cc1ccn(C(c2cc(F)ccc2Cl)C(C)c2nc(C(=O)Nc3cnoc3)c(O)c(=O)n2C)n1 (single isomer, unassigned) ... > 100 nM
10) CC(c1nc(C(=O)Nc2cnoc2)c(O)c(=O)n1C)C(c1cnn(C)c1)c1cc(C(F)(F)F)ccc1C#N (single isomer, unassigned) ... < 10 nM
11) CC(c1nc(C(=O)Nc2cnoc2)c(O)c(=O)n1C)C(c1ccccc1Cl)n1cc(C(F)(F)F)cn1 (single isomer, unassigned) ... > 100 nM
12) CC(c1nc(C(=O)Nc2cnoc2)c(O)c(=O)n1C)C(c1cnn(C)c1)c1cc(F)c(F)cc1C#N (single isomer, unassigned) ... < 10 nM
13) Cc1ncc(C(c2ccccc2C#N)C(C)c2nc(C(=O)Nc3cnoc3)c(O)c(=O)n2C)nc1C (single isomer, unassigned) [Example 81 D2E1] ... > 100 nM
14) Cc1nn(C)cc1C(c1cc(F)ccc1Cl)C(C)c1nc(C(=O)Nc2cnoc2)c(O)c(=O)n1C (single isomer, unassigned) ... < 10 nM
15) COCCn1cc(C(c2ccccc2C#N)C(C)c2nc(C(=O)Nc3cnoc3)c(O)c(=O)n2C)c(C)n1 (single isomer, unassigned) ... < 10 nM
16) CC(c1nc(C(=O)Nc2cnoc2)c(O)c(=O)n1C)C(c1cnn(C)c1)c1ccncc1C#N (single isomer, unassigned) [Example 8 D1E2] ... 10 to 100 nM
17) CC(c1nc(C(=O)Nc2cnoc2)c(O)c(=O)n1C)C(c1cnn(C)c1)c1cc(F)c(F)cc1Cl (single isomer, unassigned) ... 10 to 100 nM
18) CC(c1nc(C(=O)Nc2cnoc2)c(O)c(=O)n1C)C(c1ccccc1Cl)n1nccc1C(N)=O (single isomer, unassigned) ... 10 to 100 nM
19) Cc1cnc(C)c(C(c2ccccc2Cl)C(C)c2nc(C(=O)Nc3cnoc3)c(O)c(=O)n2C)n1 (single isomer, unassigned) [Example 120 D1E1] ... < 10 nM
20) COC(C)(C)Cn1cc(C(c2cc(F)ccc2Cl)C(C)c2nc(C(=O)Nc3cnoc3)c(O)c(=O)n2C)cn1 (single isomer, unassigned) [Example 93 D1E1] ... 10 to 100 nM
21) CCn1ncc(C(c2ccccc2C#N)C(C)c2nc(C(=O)Nc3cnoc3)c(O)c(=O)n2C)c1C (single isomer, unassigned) ... < 10 nM
22) CC(c1nc(C(=O)Nc2cnoc2)c(O)c(=O)n1C)C(c1cnn(C(F)(F)F)c1)c1ccccc1C#N (single isomer, unassigned) [Example 151 D2E1] ... > 100 nM
23) CC(c1nc(C(=O)Nc2cnoc2)c(O)c(=O)n1C)C(c1cnn(CCN2CCNCC2)c1)c1ccccc1C#N (single isomer, unassigned) ... > 100 nM
